Study system: A3F NGM P191G (UniProt Q8IUX4)
Sequence: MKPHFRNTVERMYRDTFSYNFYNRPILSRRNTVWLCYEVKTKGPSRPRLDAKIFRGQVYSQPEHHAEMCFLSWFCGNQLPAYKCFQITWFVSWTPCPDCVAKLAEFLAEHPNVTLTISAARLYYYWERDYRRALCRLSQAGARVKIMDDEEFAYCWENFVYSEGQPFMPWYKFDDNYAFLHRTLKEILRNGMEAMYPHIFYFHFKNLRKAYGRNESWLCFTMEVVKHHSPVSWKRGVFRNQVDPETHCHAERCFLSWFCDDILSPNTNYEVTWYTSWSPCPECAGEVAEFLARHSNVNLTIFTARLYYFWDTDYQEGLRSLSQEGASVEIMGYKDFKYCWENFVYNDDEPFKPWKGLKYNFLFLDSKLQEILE
Method summary: fluorescence anisotropy
Measurement parameters: RT buffer: 50 mM Tris pH 7.4, 40 mM KCl, 10 mM MgCl2, 1 mM DTT; 10 nM F-labeled DNA; 21 C
Outcome measure: pKd
// returns pKd (minus log10 of molar concentration), number only

Provide only the value of recorded pKd for GAATATAGTTTTTAGTTCAAAGTAAGTGAAGATAATTTAGAGAGTTGTAATGTGATATATGTGTATGAAAGATATAAGATTCAAAGAGTAAAGTTGTTAATGTGTGTAGATATGTTAA [A3F - 63 (TTC) (118 nt)] 6.92

---

Study system: A3F CTD (UniProt Q8IUX4)
Sequence: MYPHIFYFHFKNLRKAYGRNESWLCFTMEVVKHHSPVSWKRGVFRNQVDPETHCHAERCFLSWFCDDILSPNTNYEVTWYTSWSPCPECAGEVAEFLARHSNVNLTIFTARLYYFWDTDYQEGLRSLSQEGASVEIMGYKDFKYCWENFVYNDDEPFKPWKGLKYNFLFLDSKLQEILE
Method summary: fluorescence anisotropy
Measurement parameters: RT buffer: 50 mM Tris pH 7.4, 40 mM KCl, 10 mM MgCl2, 1 mM DTT; 10 nM F-labeled DNA; 21 C
Outcome measure: pKd
For clarity, pKd is expressed as the negative log10 of concentration in mol/L.

Answer with the recorded pKd of GAATATAGTTTTTAGTTCAAAGTAAGTGAAGATAATTTAGAGAGTTGTAATGTGATATATGTGTATGAAAGATATAAGATTCAAAGAGTAAAGTTGTTAATGTGTGTAGATATGTTAA [A3F - 63 (TTC) (118 nt)] only. 6.54

---

Study system: GST-A3F (UniProt Q8IUX4)
Sequence: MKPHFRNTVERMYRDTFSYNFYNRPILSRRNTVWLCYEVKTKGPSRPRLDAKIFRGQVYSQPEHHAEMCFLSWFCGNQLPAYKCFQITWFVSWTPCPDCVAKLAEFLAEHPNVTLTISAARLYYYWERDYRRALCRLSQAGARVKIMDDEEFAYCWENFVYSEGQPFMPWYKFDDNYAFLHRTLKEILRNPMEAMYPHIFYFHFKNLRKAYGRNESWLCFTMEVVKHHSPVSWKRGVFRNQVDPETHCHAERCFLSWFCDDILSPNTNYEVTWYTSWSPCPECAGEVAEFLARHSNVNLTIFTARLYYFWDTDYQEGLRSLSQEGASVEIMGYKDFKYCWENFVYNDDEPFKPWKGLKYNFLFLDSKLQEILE
Method summary: fluorescence anisotropy
Measurement parameters: RT buffer: 50 mM Tris pH 7.4, 40 mM KCl, 10 mM MgCl2, 1 mM DTT; 10 nM F-labeled DNA; 21 C
Outcome measure: pKd
// field semantics: pKd = negative decimal log of concentration (mol/L)

Kindly indicate its recorded pKd. Item: GAATATAGTTTTTAGTTCAAAGTAAGTGAAGATAATTTAGAGAGTTGTAATGTGATATATGTGTATGAAAGATATAAGATTCAAAGAGTAAAGTTGTTAATGTGTGTAGATATGTTAA [A3F - 63 (TTC) (118 nt)] 7.34
